# System: CD8+ T cells
# assay.explanation: In vitro T-cell priming assay with aAPCs (in vitro immunogenicity for MHC class I presented peptides)
# Assay type: cell-based, human
# experimental.parameters: in vitro immunogenicity, HLA B*08
# Source text: In order to obtain information regarding the immunogenicity of the TUMAPs of the present invention, the inventors performed investigations using an in vitro T-cell priming assay based on repeated stimulations of CD8+ T cells with artificial antigen presenting cells (aAPCs) loaded with peptide/MHC complexes and anti-CD28 antibody. […]
measure: Wells positive [%]

The cases that follow already have their Wells positive [%] on record.
> print(dat)
                                  substance             measure      reported.result
1  316 (VIKEKALTL; listed as Homo sapiens) [compound 316]  Wells positive [%]       “+” (<20% = +)
2  312 (EAMLRNKEL; listed as Homo sapiens) [compound 312]  Wells positive [%]       “+” (<20% = +)
3  303 (LPFPKFTV; listed as Homo sapiens) [compound 303]  Wells positive [%]  “++” (20%-49% = ++)
4  307 (ILLPRTVSL; listed as Homo sapiens) [compound 307]  Wells positive [%]       “+” (<20% = +)
5  300 (VASPKHCVL; listed as Homo sapiens) [compound 300]  Wells positive [%]       “+” (<20% = +)

Q: Using the record for 315 (DIYQRALNL; listed as Homo sapiens) [compound 315] , report its Wells positive [%].
A: “+” (<20% = +)

Q: For the substance shown here, 305 (ALKLRVAVL; listed as Homo sapiens) [compound 305] , give the reported Wells positive [%].
A: “+” (<20% = +)

Q: Item 298 (FNKRKPLSL; listed as Homo sapiens) [compound 298] has what recorded Wells positive [%]?
A: “+” (<20% = +)

Q: Field request: Wells positive [%] | item: 314 (AIISRLVAL; listed as Homo sapiens) [compound 314]
A: “++” (20%-49% = ++)

Q: Give its Wells positive [%] value. Item: 311 (EIRIRVVQM; listed as Homo sapiens) [compound 311]
A: “+” (<20% = +)

Q: Value lookup for Wells positive [%]; key = 313 (ELKKKEYEEL; listed as Homo sapiens) [compound 313]
A: “+” (<20% = +)

Q: Query: Wells positive [%]; subject: 308 (MLKQKVEEL; listed as Homo sapiens) [compound 308]
A: “+” (<20% = +)

Q: Data request, read-out Wells positive [%], for 297 (RAQLKLVAL; listed as Homo sapiens) [compound 297]
A: “+” (<20% = +)

Q: Fill blank: measured Wells positive [%] of the substance 306 (ILKVKVGL; listed as Homo sapiens) [compound 306] is ____.
A: “+” (<20% = +)

Q: Fill in: Wells positive [%] of 318 (EAAIRSVEL; listed as Homo sapiens) [compound 318] is ___
A: “++” (20%-49% = ++)

Values compiled from patent US11292821B2.
